Tested on: MCF7 breast tumour cells
Test: MCF7 proliferation assay
Assay type: cell-based, human
Conditions: Homo sapiens, MCF7, 96 h; 4 days incubation, crystal violet staining
EXPERIMENTAL_READOUT: IC50 (µM)

> print(dat)
                                    compound  readout.unit  rel  data.value
 1  C[C@@H](Nc1nc(Nc2ccc(S(C)=NS(=O)(=O)c3cnccc3Cl)cc2)ncc1Br)C(C)(C)O (mixture of isomers) [Example 11]            µM    <         0.1
 2  CC(=O)Nc1nnc(S(=O)(=O)N=S(C)c2ccc(Nc3ncc(Br)c(N[C@H](C)C(C)(C)O)n3)cc2)s1 (mixture of isomers) [Example 19]            µM    =         1.8
 3  C[C@@H](Nc1nc(Nc2ccc(S(C)=NS(C)(=O)=O)cc2)ncc1Br)C(C)(C)O (mixture of isomers) [Example 18]            µM    =        0.17
 4  Cc1ccc(S(=O)(=O)N=S(C)c2ccc(Nc3ncc(Br)c(NC(C)C)n3)cc2)cc1 (racemic) [Example 1]            µM    =         2.2
 5  CCS(=O)(=O)N=S(C)c1ccc(Nc2ncc(Br)c(N[C@H](C)C(C)(C)O)n2)cc1 (mixture of isomers) [Example 20]            µM    =        0.35
 6  C[C@@H](Nc1nc(Nc2ccc(S(C)=NS(=O)(=O)c3ccccc3)cc2)ncc1Br)C(C)(C)O (mixture of isomers) [Example 15]            µM    =        0.11
 7  Cc1ccc(S(=O)(=O)N=S(C)c2ccc(Nc3ncc(Br)c(N[C@H](C)CO)n3)cc2)cc1 (mixture of isomers) [Example 8]            µM    =         0.9
 8  Cc1ccc(S(=O)(=O)N=S(C)c2ccc(Nc3ncc(Br)c(NC4CC4)n3)cc2)cc1 (racemic) [Example 3]            µM    =        0.34
 9  C[C@@H](Nc1nc(Nc2ccc(S(C)=NS(=O)(=O)Cc3ccccc3)cc2)ncc1Br)C(C)(C)O (mixture of isomers) [Example 13]            µM    =        0.11
10  C[C@@H](Nc1nc(Nc2ccc(S(C)=NS(=O)(=O)C(F)(F)F)cc2)ncc1Br)C(C)(C)O (mixture of isomers) [Example 14]            µM    =        0.11

Sourced from patent US7943629B2
